- MEASUREMENT TARGET: Vitamin D3 receptor (Homo sapiens) (UniProt P11473)
- Sequence (P11473 whole entry, looked up): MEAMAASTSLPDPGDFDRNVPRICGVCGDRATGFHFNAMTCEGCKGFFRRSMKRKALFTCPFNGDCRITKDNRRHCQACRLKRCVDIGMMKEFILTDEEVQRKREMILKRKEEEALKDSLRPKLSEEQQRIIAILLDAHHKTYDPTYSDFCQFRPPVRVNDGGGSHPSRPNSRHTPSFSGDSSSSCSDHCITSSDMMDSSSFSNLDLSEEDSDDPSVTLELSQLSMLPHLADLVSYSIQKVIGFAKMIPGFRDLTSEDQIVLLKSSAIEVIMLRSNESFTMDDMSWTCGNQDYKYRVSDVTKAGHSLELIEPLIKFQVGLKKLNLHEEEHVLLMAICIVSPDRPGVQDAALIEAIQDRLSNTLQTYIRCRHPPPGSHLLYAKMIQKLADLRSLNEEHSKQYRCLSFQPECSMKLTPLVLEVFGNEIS
- ASSAY OVERVIEW: qHTS assay to identify small molecule antagonists of the vitamin D receptor (VDR) signaling pathway (AID 743223)
- CONDITION SUMMARY: VDR-UAS-bla HEK293T, beta-lactamase FRET ratio, 16 h; series mostly up to 61 µM
Inconclusive results are not listed. Calls of active or inactive are those of the source. Calls follow the shape of the dose curve; as a rule, active = well fitted inhibition curve with a large enough effect in the signal ratio in the repeat runs (not every such curve was filed as active); inconclusive = weak or mixed curves, or effect the other way; inactive = no such curve, though single readings can be large or run the other way; the % refers to the signal ratio.
Reply using exactly one outcome from active, inactive

Look over these answered cases.
compound="C=C1CCC2CC1C2(C)C (configuration not stated)" group_label=inactive
compound=Cc1ccccc1S group_label=inactive
compound=CC(=O)c1ccc([N+](=O)[O-])cc1 group_label=inactive
compound=Oc1c(I)cc(I)c2cccnc12 group_label=active

Prompt line: Please state the recorded outcome for this compound: C=C/C(C)=C/C/C=C(\C)CCC=C(C)C
Response line: inactive

Prompt line: In this assay, the call recorded for Cc1[nH]cnc1CN1CCc2c(c3ccccc3n2C)C1=O was what?
Response line: inactive

Prompt line: What did the test return for CN1CC(=O)N2[C@H](c3ccc4c(c3)OCO4)c3[nH]c4ccccc4c3C[C@@H]2C1=O ?
Response line: inactive
